SYSTEM_TESTED: T1, human FPRL1 (human, UniProt P25090 1-351)
T1 construct: Expressed in CHO cells (No. 8); also called human-derived FPRL1
T1 sequence: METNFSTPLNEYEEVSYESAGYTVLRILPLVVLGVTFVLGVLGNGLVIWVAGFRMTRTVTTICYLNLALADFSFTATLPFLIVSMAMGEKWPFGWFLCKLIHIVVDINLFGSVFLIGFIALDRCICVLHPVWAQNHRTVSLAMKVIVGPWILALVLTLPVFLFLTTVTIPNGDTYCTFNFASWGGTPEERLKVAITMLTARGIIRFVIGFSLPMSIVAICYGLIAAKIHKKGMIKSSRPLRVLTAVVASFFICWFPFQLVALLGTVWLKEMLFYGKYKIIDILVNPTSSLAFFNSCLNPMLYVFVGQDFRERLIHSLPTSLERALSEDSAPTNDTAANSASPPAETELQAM
PROTOCOL_DETAILS: competitive inhibition of binding of 125I-labeled compound to membrane fraction of human FPRL1-expressing CHO cells, filter trapping
Procedure: Then, by reverse phase HPLC using TSKgel ODS-80TM CTR 4.6 x 100 mm column, a peak of labeled form, which was produced by the reaction, was fractionated. […] Competitive inhibition test was carried out under the following conditions. […] After completely drying the filter, Microcinti 0 (Packard) was added to the filter, and a level of labeled form co-trapped with the membrane fraction on the filter was measured using Topcount (Pakard). Non-specific binding level was subtracted from each measured value. […]
Where no end group is shown, it is not given here. The star is where a group is joined. For = O=C*
READOUT: IC50 (nM)

P = For-MFVNRWLYSTNHK (The purified fraction also held a Met(O) oxidant; also called porcine FPRL ligand P3; porcine intrinsic FPRL1 ligand P3) [porcine FPRL1 ligand P3 (pfCYOX-1(1-13))]
Q = For-MFADRWLFSTNHK (Synthesized at Peptide Institute, Inc; also called human FPRL ligand P3) [human FPRL1 ligand P3 (hfCYOX-1(1-13))]
Higher IC50: P or Q ? Kindly state the label of the option you pick.
Q
